# Organism: Homo sapiens
# procedure_text: Inhibition of human ProRS expressed in Escherichia coli assessed as change in melting temperature in presence of AMPPNP at 0.5 mM by fluorescence-based thermal shift assay
measurement_label: ΔTm

line_notation=Cc1cc2ncn(CC(=O)C[C@@H]3CCCCN3)c(=O)c2cc1C observed="13.9 °C"
line_notation=O=C(C[C@@H]1CCCCN1)Cn1cnc2cc(F)ccc2c1=O observed="18.1 °C"
line_notation=CC(C)(C)c1ccc2c(=O)n(CC(=O)C[C@@H]3CCCCN3)cnc2c1 observed="3.9 °C"
line_notation=O=C(C[C@@H]1CCCCN1)Cn1cnc2cc(F)c(F)cc2c1=O observed="19.2 °C"
